For each of the compounds below, state its EC50.
# SUBJECT OF TEST: UniProt P25931
# Sequence (P25931 whole entry): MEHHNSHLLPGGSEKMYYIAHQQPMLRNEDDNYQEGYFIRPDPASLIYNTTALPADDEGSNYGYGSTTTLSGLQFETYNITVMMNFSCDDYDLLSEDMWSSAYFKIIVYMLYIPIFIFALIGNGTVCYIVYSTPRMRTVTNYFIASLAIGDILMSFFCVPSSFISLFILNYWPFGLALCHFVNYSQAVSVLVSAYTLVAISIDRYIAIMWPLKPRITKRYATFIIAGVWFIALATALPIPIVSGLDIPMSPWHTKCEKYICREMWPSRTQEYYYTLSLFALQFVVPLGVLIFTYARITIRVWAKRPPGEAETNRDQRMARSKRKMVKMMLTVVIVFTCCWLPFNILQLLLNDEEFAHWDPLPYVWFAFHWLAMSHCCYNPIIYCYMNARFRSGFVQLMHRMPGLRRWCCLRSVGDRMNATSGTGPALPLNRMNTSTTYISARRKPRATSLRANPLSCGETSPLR
# ASSAY PROCEDURE: Agonist activity at Drosophila melanogaster RYamide receptor expressed in wild type CHO-K1 cells assessed as increase in calcium level after 20 secs by luminescence assay
One number for each entry, in µM.

| COMPOUND | MEASURED QUANTITY | VAL |
| --- | --- | --- |
| CC(C)CN1C[C@@H](CCCCN)N=C(SCCC(=O)NN)c2nn(CC(C)C)cc21 | EC50 | 20.9 |
| CC(C)CN1C[C@H](CCCCN)N=C(SCCC(N)=O)c2nn(CC(C)C)cc21 | EC50 | 6.1 |
| CC(C)CN1C[C@H](CCCCN)NC(=S)c2nn(CC(C)C)cc21 | EC50 | 6.8 |

Here's the next entry for you.
The compound Cc1noc(C)c1CN1CC(Cc2ccccc2)NC(=O)c2nn(CCC3CCN(C(=O)OC(C)(C)C)CC3)cc21 (centres undefined) , when measured on UniProt P25931, yielded EC50 of 5.9
